Molecular target: C-C chemokine receptor type 6 (Homo sapiens) (UniProt P51684)
Assay: potency against CXCR6 with APJ panel – cell-based, beta-arrestin, DiscoveRx, uHTS hits, dose response (AID 624129)
Conditions: CXCR6 beta-arrestin (DiscoveRx) antagonist cell assay, CCR6, run 2, dose range 1
recorded_endpoint: IC50 (µM)
One number for each entry, in µM.

{"compound": "Cc1cc(Cl)n2c(nc3cc(F)c(F)cc32)c1C#N", "target": "C-C chemokine receptor type 6 (Homo sapiens) (UniProt P51684)", "IC50, µM": 12.5}

Provide reported IC50 for each item, in the same order as listed.
1. CCO[C@@H]1OC(C(=O)N2CCN(Cc3ccccc3)CC2)=C[C@H](c2ccc(Br)cc2)[C@H]1CCCO
2. CCS(=O)(=O)c1ncc(Cl)c(C(=O)Nc2ccc(S(=O)(=O)N3CCCC(C)C3)cc2)n1 (configuration not stated)
3. COC(=O)c1ccc2c(c1)C(C)(C)C(/C=C/c1ccc(OC)c(OC)c1OC)=[N+]2C
4. CC(Oc1cccc(Cl)c1)C(=O)Nc1nc(-c2ccccn2)cs1 (configuration not stated)
5. COc1cc(/C=C/c2ccc3cccc(O)c3n2)ccc1O
6. Cc1c(Nc2cc(Cl)c3nonc3c2[N+](=O)[O-])c(=O)n(-c2ccccc2)n1C

1. 11.6
2. 7.39
3. 11
4. 8.37
5. 12.9
6. 3.55

Record IC50 for all entries; do not skip any.
1. O=Cc1s/c(=N\S(=O)(=O)c2ccccc2)n(CCCCl)c1Cl
2. CCOC(=O)c1c(SCCN2CCCCC2)n(-c2ccccc2)c(=S)n(-c2ccccc2)c1=O
3. Oc1c(Cl)cc(Cl)c2cccnc12
4. Nc1cc(Cl)c2nonc2c1[N+](=O)[O-]
5. CC(Oc1ccc(F)cc1)C(=O)Nc1nc(-c2ccccn2)cs1 (configuration not stated)
6. CCOc1cc(Br)c(Br)c(C=Nc2ccc(NC(C)=O)cc2)c1O
7. S=C(NCCCN1CCOCC1)Nc1ccc(Cl)cc1
8. O=S(=O)(/C=C/C=C/S(=O)(=O)c1ccccc1)c1ccccc1

1. 3.43
2. 7.23
3. 2.94
4. 9.16
5. 9.57
6. 40.4
7. 11
8. 7.33

Take each entry in turn and give its IC50.
1. Cn1c(=O)c([N+](=O)[O-])c(Cl)c2ccccc21
2. O=C(C#Cc1ccccc1)c1ccc([N+](=O)[O-])cc1
3. CCn1c(Cl)c(C=O)s/c1=N\S(=O)(=O)c1ccccc1
4. COc1ccccc1C(=O)NNC(=S)NC(=O)c1cccs1
5. O=C1N[C@H](Cc2ccccc2)COC(=O)[C@H](Cc2ccc(F)cc2)CC/C=C/C[C@H]1CC(=O)N(CCO)Cc1ccccc1
6. COc1ccc([N+](=O)[O-])c(S(=O)(=O)c2ccccc2)n1
7. O=[N+]([O-])c1c(NCCCO)cc(Sc2nc3ccccc3s2)c2nonc12
8. N#CC(C#N)=C1C=CC=CN1/C(=C\c1ccco1)C(=O)c1ccc(Cl)cc1

27.1
1.98
4.09
11.9
8.19
16.5
9.37
16.4

These measurements were taken from PubChem BioAssay AID624129.
